STUDY TARGET: human JAK3 (a.a. 781-1124) (Homo sapiens, UniProt P52333)
Construct: JAK3 (a.a. 781-1124); His tag (N); made in house; host or cells: insect cells (baculovirus)
Sequence (P52333 781-1124): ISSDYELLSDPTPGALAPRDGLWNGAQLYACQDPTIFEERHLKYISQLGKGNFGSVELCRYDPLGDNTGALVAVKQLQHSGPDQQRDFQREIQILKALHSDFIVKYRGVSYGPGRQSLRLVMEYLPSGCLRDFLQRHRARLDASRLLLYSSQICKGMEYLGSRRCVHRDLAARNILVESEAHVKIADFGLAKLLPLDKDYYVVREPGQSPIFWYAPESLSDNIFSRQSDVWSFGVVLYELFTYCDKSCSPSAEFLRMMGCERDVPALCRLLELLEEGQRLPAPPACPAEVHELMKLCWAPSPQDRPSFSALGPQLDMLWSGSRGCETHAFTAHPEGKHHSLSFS
EXPERIMENTAL PROTOCOL: In vitro JAK kinase assay (HTRF, phosphorylation of a biotinylated peptide), JAK3
Assay type: biochemical
STUDY CONDITIONS: Table B1
pIC50: −log10 of the molar value.
RESULT TYPE: pIC50

Some molecules with recorded pIC50:
Task: Requested read-out: pIC50. Entry: O=C(Nc1ccc2cc1CCc1cncc(c1)Nc1ncc(Cl)c(n1)N2)N1CCN(Cc2ccccc2)CC1
Output: < 6.70

Task: Requested read-out: pIC50. Entry: O=C(Nc1ccc2cc1CCc1cncc(c1)Nc1ncc(Cl)c(n1)N2)N[C@H]1CCN(C(=O)c2cn[nH]c2)C1 [Example B267, bis(trifluoroacetate)]
Output: < 5.00

Now for another entry.
Task: Requested read-out: pIC50. Entry: O=C(Nc1ccc2cc1CCc1cncc(c1)Nc1ncc(Cl)c(n1)N2)N1CCN(C(=O)c2ccccc2)CC1 [Example B286, bis(trifluoroacetate)]
Output: < 6.70
